Listed next: entries and their corresponding drug sensitivity score.
Test system: CAL-120
Assay: drug sensitivity score (DSS), CellTiter-Blue viability (DSS (AUC-based score)); higher = stronger viability inhibition; extreme values may be limits of the assay
Conditions: incubation time: 72 h
observable: drug sensitivity score

[[record]]
compound = "N.N.[Cl][Pt][Cl] [Cisplatin]"
target_entity = "CAL-120"
assay_value = 0

[[record]]
compound = "Cn1c(CCCC(=O)O)nc2cc(N(CCCl)CCCl)ccc21"
target_entity = "CAL-120"
assay_value = 0

[[record]]
compound = "CCC1=C[C@@H]2CN(C1)Cc1c([nH]c3ccccc13)[C@@](C(=O)OC)(c1cc3c(cc1OC)N(C)[C@H]1[C@@](O)(C(=O)OC)[C@H](OC(C)=O)[C@]4(CC)C=CCN5CC[C@]31[C@@H]54)C2"
target_entity = "CAL-120"
assay_value = 24.4

[[record]]
compound = "CNCc1ccc(-c2[nH]c3cc(F)cc4c3c2CCNC4=O)cc1"
target_entity = "CAL-120"
assay_value = 0

[[record]]
compound = "Cc1ccc(C(=O)N(CCCN)[C@@H](c2oc3cc(Cl)ccc3c(=O)c2Cc2ccccc2)C(C)C)cc1"
target_entity = "CAL-120"
assay_value = 27.6

[[record]]
compound = "O=P1(NCCCl)OCCCN1CCCl (stereo unspecified) [Ifosfamide]"
target_entity = "CAL-120"
assay_value = 0

